Hello, the source for this data is patent US11840574B2, in case you need it.

tested.target: Human DR5 (Homo sapiens, UniProt O14763)
experimental.details: Binding affinity of antibody to human DR5 (BIAcore, CM5 chip)
setup.conditions: association rate, Human DR5, 1:1 Langmuir binding model
As shown below, each of these molecules has a reported Ka(1/Ms) value.

{"molecule": "DA34: humanized or deimmunized variant of parental clone D0; CDRs SEQ ID NO 1, 2, 7 / 4, 10, 13 (antibody, V domains shown) VH: AVTLDESGGGLQTPGGGLSLVCKGSGFTFSSFNMLWVRQAPGKGLEWVAGIGKSDRYTGYGSAVKGRATISRDDGQSTAYLQMNSLRAEDTAVYYCVKDAGSGCGSGGWTGACIDTWGHGTEVIVSS VL: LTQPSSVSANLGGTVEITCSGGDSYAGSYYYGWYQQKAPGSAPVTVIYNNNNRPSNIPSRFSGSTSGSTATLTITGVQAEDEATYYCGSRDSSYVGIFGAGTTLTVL", "Ka(1/Ms)": "1.00 × 10^06 1/Ms"}
{"molecule": "DA24: humanized or deimmunized variant of parental clone D0; CDRs SEQ ID NO 1, 2, 7 / 4, 10, 13 (antibody, V domains shown) VH: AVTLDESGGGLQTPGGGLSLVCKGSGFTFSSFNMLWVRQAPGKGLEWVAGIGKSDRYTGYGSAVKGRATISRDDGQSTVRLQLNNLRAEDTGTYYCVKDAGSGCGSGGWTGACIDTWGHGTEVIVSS VL: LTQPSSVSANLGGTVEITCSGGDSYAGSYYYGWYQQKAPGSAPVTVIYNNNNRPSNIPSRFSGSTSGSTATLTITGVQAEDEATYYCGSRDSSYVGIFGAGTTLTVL", "Ka(1/Ms)": "1.20 × 10^06 1/Ms"}
{"molecule": "DA27: humanized or deimmunized variant of parental clone D0; CDRs SEQ ID NO 1, 2, 7 / 4, 10, 13 (antibody, V domains shown) VH: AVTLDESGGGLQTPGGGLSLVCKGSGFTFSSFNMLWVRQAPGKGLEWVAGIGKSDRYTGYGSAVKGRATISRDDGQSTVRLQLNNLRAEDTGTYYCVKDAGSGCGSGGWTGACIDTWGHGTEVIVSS VL: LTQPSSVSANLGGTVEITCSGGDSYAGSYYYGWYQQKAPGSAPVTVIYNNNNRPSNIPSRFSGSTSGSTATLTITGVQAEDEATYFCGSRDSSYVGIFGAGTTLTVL", "Ka(1/Ms)": "1.17 × 10^06 1/Ms"}
